Hey, just so you know, these numbers are from PubChem BioAssay AID1919010.

# System: Hs578T complex spheroid growth, percent test/control
# procedure_summary: Anticancer human tumor Hs578T cell line growth inhibition [AhR];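 also: luminescent viability signal as a proxy for spheroid growth; spheroids exposed to agents for one week after three days of growth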
# experimental_context: second compound 3.16 µM; first compound 0.0316 µM; active compounds read low
# Excerpt: Multicellular complex tumor spheroid response to aryl hydrocarbon receptor antagonists in combination with a variety of drugs and investigational agents in selected tumor cell lines […] Compounds. […] If the clinical Cmax for an agent had not been determined, the highest concentration tested was 10 microM (Table 1). […]

compound: CC1(C)CCC(CN2CCN(c3ccc(C(=O)NS(=O)(=O)c4ccc(NCC5CCOCC5)c([N+](=O)[O-])c4)c(Oc4cnc5[nH]ccc5c4)c3)CC2)=C(c2ccc(Cl)cc2)C1 + Cc1cncc(-c2nc(NCCc3c[nH]c4ccccc34)c3ncn(C(C)C)c3n2)c1
viability, T/C, %: 49.6
--
compound: O=C(c1cc(Cc2n[nH]c(=O)c3ccccc23)ccc1F)N1CCN(C(=O)C2CC2)CC1 + Cc1ccccc1N=Nc1ccc(NC(=O)c2ccnn2C)c(C)c1
viability, T/C, %: 96.9
--
compound: CC1COCCN1c1cc(-c2ccnn2C)c2ccnc(-c3ccn[nH]3)c2n1 (stereo unspecified) + Cc1cncc(-c2nc(NCCc3c[nH]c4ccccc34)c3ncn(C(C)C)c3n2)c1
viability, T/C, %: 58.8
--
compound: O=C(c1cc(Cc2n[nH]c(=O)c3ccccc23)ccc1F)N1CCN(C(=O)C2CC2)CC1 + CC(CO)NC(=O)c1cc(-c2ccc(Cl)cc2)nn(-c2cnn(C)c2)c1=O
viability, T/C, %: 122
--
compound: COc1cccc2c1C(=O)c1c(O)c3c(c(O)c1C2=O)CC(O)(C(=O)CO)CC3OC1CC(N)C(O)C(C)O1 (stereo unspecified) + Cc1ccccc1N=Nc1ccc(NC(=O)c2ccnn2C)c(C)c1
viability, T/C, %: 68.7
--
compound: CC(C)c1c(-c2ccccc2)nc2c(C#N)c[nH]n2c1=O + Cc1ccccc1N=Nc1ccc(NC(=O)c2ccnn2C)c(C)c1
viability, T/C, %: 96
